The values you see were collected from patent US9884819B2.

Would you kindly list Percent Remaining (%) 15 min for each of these molecules?
Target: CYP1A2 (Homo sapiens)
Construct: purchased BD Biosciences, San Jose, Calif
Sequence (P05177 whole entry): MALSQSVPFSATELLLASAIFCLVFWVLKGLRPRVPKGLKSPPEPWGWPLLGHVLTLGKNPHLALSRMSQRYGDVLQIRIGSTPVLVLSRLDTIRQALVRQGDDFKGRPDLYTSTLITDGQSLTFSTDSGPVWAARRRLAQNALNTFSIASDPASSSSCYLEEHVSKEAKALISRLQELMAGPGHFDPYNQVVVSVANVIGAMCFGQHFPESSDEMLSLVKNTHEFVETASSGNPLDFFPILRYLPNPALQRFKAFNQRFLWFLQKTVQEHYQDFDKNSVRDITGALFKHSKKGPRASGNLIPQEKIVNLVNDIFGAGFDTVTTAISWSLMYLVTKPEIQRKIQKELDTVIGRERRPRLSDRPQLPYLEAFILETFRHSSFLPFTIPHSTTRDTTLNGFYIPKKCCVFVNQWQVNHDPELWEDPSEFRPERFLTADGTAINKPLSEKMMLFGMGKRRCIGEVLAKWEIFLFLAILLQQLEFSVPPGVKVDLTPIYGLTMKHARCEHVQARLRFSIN
Experiment: In vitro metabolism using human cytochrome P450 enzymes (CYP1A2)
Assay type: in vitro ADME
Conditions: Cyp 1A2, 15 min, mean
Give bare numbers, in %.

Please review the entries below; each comes with its answer.
1. [2H]C1([2H])c2c([nH]c3ccc(Cl)cc23)C(C(N)=O)C([2H])([2H])C1([2H])[2H] (stereo not shown) [Example 3] :: 45.84
2. [2H]C1(C(N)=O)CCCc2c1[nH]c1ccc(Cl)cc21 (stereo not shown) [Example 2] :: 48.53
3. CCOc1ccc(NC(C)=O)cc1 [Phenacetin] :: 53.02

Field: next molecule
(Q) What measured Percent Remaining (%) 15 min goes with NC(=O)C1CCCc2c1[nH]c1ccc(Cl)cc21 (stereo not shown) [Example 1] ?
(A) 46.28

---

Test: In vitro human liver microsomal stability assay
Type: in vitro ADME
Details: human liver microsomes 2 mg/mL, 1 μM compound, 15 min, mean
assay-metric: Percent Remaining (%) 15 min
Give bare numbers, in %.

1. O=C(c1ccc(F)cc1)C1CCN(CCn2c(=O)[nH]c3ccccc3c2=O)CC1 [Ketanserin] :: 78.08

Quick one: give me Percent Remaining (%) 15 min for each item below, same order please.
1. [2H]C1(C(N)=O)CCCc2c1[nH]c1ccc(Cl)cc21 (stereo not shown) [Example 2]
2. [2H]C1([2H])c2c([nH]c3ccc(Cl)cc23)C(C(N)=O)C([2H])([2H])C1([2H])[2H] (stereo not shown) [Example 3]
3. NC(=O)C1CCCc2c1[nH]c1ccc(Cl)cc21 (stereo not shown) [Example 1]

(A)
100.12
92.39
93.37

---

Target: CYP1A2 (Homo sapiens)
Construct: purchased BD Biosciences, San Jose, Calif
Test: In vitro metabolism using human cytochrome P450 enzymes (CYP1A2)
Assay type: in vitro ADME
Conditions: Cyp 1A2, 45 min, mean
assay-metric: Percent Remaining (%) 45 min
Please answer using a numeric value trailed by its unit.

Worked examples follow.
1. [2H]C1(C(N)=O)CCCc2c1[nH]c1ccc(Cl)cc21 (stereo not shown) :: 17.05%
2. CCOc1ccc(NC(C)=O)cc1 :: 20.20%
3. NC(=O)C1CCCc2c1[nH]c1ccc(Cl)cc21 (stereo not shown) :: 16.02%

Note: attention shifts to another entry.
(Q) Value wanted: Percent Remaining (%) 45 min (CYP1A2 (Homo sapiens)) of entry [2H]C1([2H])c2c([nH]c3ccc(Cl)cc23)C(C(N)=O)C([2H])([2H])C1([2H])[2H] (stereo not shown)
(A) 17.34%

---

Assay: In vitro human liver microsomal stability assay
Assay type: in vitro ADME
Conditions: human liver microsomes 2 mg/mL, 1 μM compound, 30 min, mean
assay-metric: Percent Remaining (%) 30 min

// each listed compound needs a value for Percent Remaining (%) 30 min
1. NC(=O)C1CCCc2c1[nH]c1ccc(Cl)cc21 (stereo not shown)
2. [2H]C1(C(N)=O)CCCc2c1[nH]c1ccc(Cl)cc21 (stereo not shown)

(A)
1: 90.46%; 2: 85.44%

Your task in this section: give Percent Remaining (%) 30 min for each listed record.
1. O=C(c1ccc(F)cc1)C1CCN(CCn2c(=O)[nH]c3ccccc3c2=O)CC1
2. [2H]C1([2H])c2c([nH]c3ccc(Cl)cc23)C(C(N)=O)C([2H])([2H])C1([2H])[2H] (stereo not shown)

(A)
["64.73%", "86.96%"]

---

Target: CYP3A4 (Homo sapiens, UniProt P08684)
Sequence (P08684 whole entry): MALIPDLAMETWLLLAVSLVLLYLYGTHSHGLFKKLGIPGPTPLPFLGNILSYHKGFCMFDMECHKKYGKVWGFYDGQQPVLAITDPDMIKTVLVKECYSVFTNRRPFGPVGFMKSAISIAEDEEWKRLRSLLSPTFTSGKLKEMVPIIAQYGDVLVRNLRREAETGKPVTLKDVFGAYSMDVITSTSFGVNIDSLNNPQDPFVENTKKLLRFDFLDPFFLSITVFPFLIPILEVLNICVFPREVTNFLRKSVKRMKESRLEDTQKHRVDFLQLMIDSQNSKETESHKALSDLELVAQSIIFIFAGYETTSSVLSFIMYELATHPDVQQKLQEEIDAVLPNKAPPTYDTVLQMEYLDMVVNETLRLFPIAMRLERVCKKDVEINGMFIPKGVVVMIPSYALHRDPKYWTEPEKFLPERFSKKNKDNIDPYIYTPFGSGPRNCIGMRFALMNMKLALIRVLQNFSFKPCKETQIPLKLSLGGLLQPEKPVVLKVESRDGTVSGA
Experiment: In vitro metabolism using human cytochrome P450 enzymes (CYP3A4)
Conditions: Cyp 3A4
assay-metric: Clint (mL/min/pmol)
Answers are plain numbers, in mL/min/pmol.

Example molecules with recorded Clint:
1. [2H]C1(C(N)=O)CCCc2c1[nH]c1ccc(Cl)cc21 (stereo not shown) :: 0.00013
2. [2H]C1([2H])c2c([nH]c3ccc(Cl)cc23)C(C(N)=O)C([2H])([2H])C1([2H])[2H] (stereo not shown) :: 0.00010

Now, please, on to the next molecule.
(Q) Reported Clint for NC(=O)C1CCCc2c1[nH]c1ccc(Cl)cc21 (stereo not shown) : what is it?
(A) 0.00013
